test system: sodium channel; test: Guanidine influx assay (14C-guanidine radiotracer flux) in a known cell line that expresses a sodium channel; format: cell-based, human or rat
compounds and their reported IC50

A selection of reference data follows.
COMPOUND | TARGET UNDER TEST | OBSERVED
CCCCCN1C(=O)C2(COc3cc(-c4ccncc4)ccc32)c2ccccc21 (stereo not drawn) | sodium channel | 100 to 1000 nM
O=C1N(Cc2ccc(F)cc2)c2ccccc2C12COc1cc3c(cc12)OCO3 (stereo not drawn) | sodium channel | 10 to 100 nM
CCCCCN1C(=O)C2(COc3ccc(C#N)cc32)c2ccccc21 (stereo not drawn) | sodium channel | 100 to 1000 nM
CCCCCN1C(=O)C2(COc3cc(S(C)(=O)=O)ccc32)c2ccccc21 (stereo not drawn) | sodium channel | > 1000 nM
O=C(O)c1ccc(CN2C(=O)C3(COc4cc5c(cc43)OCO5)c3ccccc32)cc1 (stereo not drawn) | sodium channel | > 1000 nM

IC50 of CCCCCN1C(=O)C2(CCCc3cc4c(cc32)OCO4)c2ccccc21 (stereo not drawn) , assay on sodium channel, is 1 to 10 nM

IC50 of CCCCCN1C(=O)C2(COc3cc(Oc4ccccc4)ccc32)c2ccccc21 (stereo not drawn) , assay on sodium channel, is > 1000 nM

IC50 of O=C(NCCN1C(=O)C2(COc3cc4c(cc32)OCO4)c2ccccc21)Nc1ccc(F)cc1 (stereo not drawn) , assay on sodium channel, is > 1000 nM

IC50 of O=C(O)CN1C(=O)C2(COc3cc4c(cc32)OCO4)c2ccccc21 (stereo not drawn) , assay on sodium channel, is > 1000 nM

IC50 of CCCCCN1C(=O)C2(COc3ccc(-c4ccncc4)cc32)c2ccccc21 (stereo not drawn) , assay on sodium channel, is 100 to 1000 nM

IC50 of CCCCCN1C(=O)C2(OCc3cc4c(cc32)OCO4)c2ccccc21 (stereo not drawn) , assay on sodium channel, is 1 to 10 nM

IC50 of NCCN1C(=O)C2(COc3cc4c(cc32)OCO4)c2ccccc21 (stereo not drawn) , assay on sodium channel, is > 1000 nM

IC50 of CCCCCCN1C(=O)C2(CC(=O)Oc3cc4c(cc32)OCO4)c2ccccc21 (stereo not drawn) , assay on sodium channel, is > 1000 nM
